Data credit: ChEMBL document CHEMBL3885881

organism: Rattus norvegicus; experiment: DrugMatrix - Regimen: Daily Repeat; assay type: toxicity, organism-based, Sprague-Dawley; set-up: regimen Daily Repeat, gender Male, age 6-8 weeks; conditions: in vivo, po, 0 mg/kg, 72 h, tissue Plasma, route oral GAVAGE, dose level Control, time 3 day, […]
REPORTED_PROPERTY: ALANINE AMINOTRANSFERASE (u/L)
Respond with the bare value in u/L.

Reference set, count: 5
COMPOUND	UNITS_LABEL	ALANINE AMINOTRANSFERASE
CCOC(=O)C1=C(C)NC(C)=C(C(=O)OC)C1c1cccc([N+](=O)[O-])c1 (stereo not given)	u/L	77
CC(=O)Nc1cccc(O)c1	u/L	61.33
CC(C)Cc1ccc(C(C)C(=O)O)cc1 (stereo not given)	u/L	97.67
CC/C(=C(/CC)c1ccc(O)cc1)c1ccc(O)cc1	u/L	67.5
CCCCCCCCc1ccc(O)cc1	u/L	67.17

Now, please, on to the next compound.
The value of ALANINE AMINOTRANSFERASE measured for the compound S=C=Nc1cccc2ccccc12 [1-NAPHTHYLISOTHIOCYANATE] turned out to be 65.17
